All figures here come from ChEMBL document CHEMBL4732025.

The following compounds are listed with their measured IC50 values.
biological target: 4-diphosphocytidyl-2-C-methyl-D-erythritol kinase (Escherichia coli (strain K12)); experiment: Inhibition of IspE expressed in Escherichia coli incubated for 30 mins by microplate reader assay
Sequence (P62615 whole entry): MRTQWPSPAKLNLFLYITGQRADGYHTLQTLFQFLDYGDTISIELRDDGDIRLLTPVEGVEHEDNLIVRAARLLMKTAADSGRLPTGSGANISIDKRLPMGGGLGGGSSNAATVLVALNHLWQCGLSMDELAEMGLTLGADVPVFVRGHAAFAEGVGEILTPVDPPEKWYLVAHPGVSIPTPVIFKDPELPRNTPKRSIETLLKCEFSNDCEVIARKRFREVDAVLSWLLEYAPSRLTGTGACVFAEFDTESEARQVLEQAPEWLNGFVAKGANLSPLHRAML
Response body: numeric value in µM, unit text excluded.

{"compound": "CCCn1c(C)cc(-c2csc(NC(=O)c3cccs3)n2)c1C", "readout kind": "IC50", "units symbol": "µM", "readout number": 68}

Can you share its IC50? I mean this compound: Nc1nc(=O)n(C2CCCS2)cc1C#CCNS(=O)(=O)C1CC1 (stereo not drawn)
1

For the compound "CCCn1c(C)cc(-c2csc(NC(=O)c3ccco3)n2)c1C" , what IC50 is on record?
91

###

system: Escherichia coli; test: Antimicrobial activity against Escherichia coli BL21 (DE3) assessed as growth inhibition at 100 uM relative to control; assay type: functional
readout kind: inhibition at 100 µM (%)
Reply with just the number (in %).

Solved entries:
{"line notation": "CCn1c(C)cc(-c2csc(NC(=O)[C@@H](N)NCC(=O)O)n2)c1C", "inhibition at 100 µM, %": 16}
{"line notation": "CC(C)C[C@H](N[C@H](N)C(=O)Nc1csc(-c2ccccc2)n1)C(=O)O", "inhibition at 100 µM, %": 30}
{"line notation": "N[C@@H](NCC(=O)O)C(=O)Nc1csc(-c2ccccc2)n1", "inhibition at 100 µM, %": 19}
{"line notation": "CC(C)[C@H](N[C@H](N)C(=O)Nc1csc(-c2ccccc2)n1)C(=O)O", "inhibition at 100 µM, %": 16}

Switching to the query record.
Give its inhibition at 100 µM value. Item: "Cc1cc(-c2csc(NC(=O)[C@@H](N)NCC(=O)O)n2)c(C)n1C"
18
